Assay: plasma pharmacokinetics in patients (HPLC–MS/MS, non-compartmental analysis)
Assay type: in vivo, human
Details: human, plasma, oral, Dose-level 3: dacomitinib 15 mg QD + PD-0325901 4 mg BID; Cycle 1 Day 1; n = 2; read-out: Cmax dacomitinib, mean (CV%)
Method: For pharmacokinetic analyses, serial blood samples were obtained from all patients prior to treatment administration on day 1, and 1, 2, 3, 4, 6, 8, 12, 24, 72 and 144 h after the first dose. […] Transitions from m/z 480 to 329 and m/z 489 to 255 were monitored for the detection of dacomitinib and PD-0325901, respectively. Stable isotope-labelled internal standards were used for the quantification. […]
Measured Endpoint: Cmax (ng/mL)
Quick reminder: number only, in ng/mL, skip the unit.

Query: Recorded Cmax of "COc1cc2ncnc(Nc3ccc(F)c(Cl)c3)c2cc1NC(=O)/C=C/CN1CCCCC1" , please.
Result: 2.5

====

Assay: plasma pharmacokinetics in patients (HPLC–MS/MS, non-compartmental analysis)
Format: in vivo, human
Conditions: human, plasma, oral, Dose-level 5: dacomitinib 15 mg QD + PD-0325901 6 mg BID; Cycle 1 Day 1; n = 8; read-out: Cmax PD-0325901, mean (CV%)
Measured Endpoint: Cmax (ng/mL)
Quick reminder: number only, in ng/mL, skip the unit.

Query: Recorded Cmax of "O=C(NOC[C@H](O)CO)c1ccc(F)c(F)c1Nc1ccc(I)cc1F" , please.
Result: 262
